Biological target: human PD-L1 (Homo sapiens (Human))
Sequence (Q9NZQ7 19-239): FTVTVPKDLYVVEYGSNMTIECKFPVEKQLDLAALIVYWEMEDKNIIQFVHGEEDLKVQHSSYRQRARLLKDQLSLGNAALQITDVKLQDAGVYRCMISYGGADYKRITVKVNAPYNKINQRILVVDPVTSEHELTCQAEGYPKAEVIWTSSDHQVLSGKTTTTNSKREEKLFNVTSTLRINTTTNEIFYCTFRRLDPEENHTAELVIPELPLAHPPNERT
Experiment: Enzyme-Linked Immunosorbent Assay (ELISA), PD-1/PD-L1 binding
Conditions: plate-coated human PD-L1, biotinylated Human PD-1, absorbance at 450 nm
Experimental: 96 Well plates were coated with […] of human PD-L1 (obtained from R&D) in PBS overnight at 4° C. The wells were then blocked with 2% BSA in PBS (W/V) with 0.05% TWEEN-20 for 1 hour at 37° C. The plates were washed 3 times with PBS/0.05% TWEEN-20 and the compounds were serial diluted (1:5) in dilution medium and added to the ELISA plates. […] The absorbance was read at 450 nm using a micro-plate spectrophotometer. […]
In this section we review reported IC50 values for a set of molecules.

A selection of reference data follows.
Incoming: For COc1cc(-c2cccc(-c3cccc(NC(=O)c4cn(C)c(=O)n(C)c4=O)c3Cl)c2F)cc(F)c1CN[C@@H]1CCOC[C@@H]1O , write its IC50.
Outgoing: < 10 nM

Incoming: For COc1cc(-c2cccc(-c3cccc(NC(=O)c4cn(C)c(=O)n(C)c4=O)c3C)c2Cl)cc(F)c1CN[C@@H]1COC[C@@H]1O , write its IC50.
Outgoing: < 10 nM

---
Incoming: For COc1cc(-c2cccc(-c3cccc(NC(=O)c4cn(C)c(=O)n(C)c4=O)c3C)c2Cl)cc(F)c1CN1CCC2(CCNC2=O)CC1 , write its IC50.
Outgoing: 10 to 1000 nM
